SYSTEM TESTED: HEK293 cells with stable expression of the GRIN1 gene and tetracycline-inducible expression of the GRIN2B gene (NMDA receptor, NR2B) (Homo sapiens)
Sequence (Q13224 27-1484, other chains not shown): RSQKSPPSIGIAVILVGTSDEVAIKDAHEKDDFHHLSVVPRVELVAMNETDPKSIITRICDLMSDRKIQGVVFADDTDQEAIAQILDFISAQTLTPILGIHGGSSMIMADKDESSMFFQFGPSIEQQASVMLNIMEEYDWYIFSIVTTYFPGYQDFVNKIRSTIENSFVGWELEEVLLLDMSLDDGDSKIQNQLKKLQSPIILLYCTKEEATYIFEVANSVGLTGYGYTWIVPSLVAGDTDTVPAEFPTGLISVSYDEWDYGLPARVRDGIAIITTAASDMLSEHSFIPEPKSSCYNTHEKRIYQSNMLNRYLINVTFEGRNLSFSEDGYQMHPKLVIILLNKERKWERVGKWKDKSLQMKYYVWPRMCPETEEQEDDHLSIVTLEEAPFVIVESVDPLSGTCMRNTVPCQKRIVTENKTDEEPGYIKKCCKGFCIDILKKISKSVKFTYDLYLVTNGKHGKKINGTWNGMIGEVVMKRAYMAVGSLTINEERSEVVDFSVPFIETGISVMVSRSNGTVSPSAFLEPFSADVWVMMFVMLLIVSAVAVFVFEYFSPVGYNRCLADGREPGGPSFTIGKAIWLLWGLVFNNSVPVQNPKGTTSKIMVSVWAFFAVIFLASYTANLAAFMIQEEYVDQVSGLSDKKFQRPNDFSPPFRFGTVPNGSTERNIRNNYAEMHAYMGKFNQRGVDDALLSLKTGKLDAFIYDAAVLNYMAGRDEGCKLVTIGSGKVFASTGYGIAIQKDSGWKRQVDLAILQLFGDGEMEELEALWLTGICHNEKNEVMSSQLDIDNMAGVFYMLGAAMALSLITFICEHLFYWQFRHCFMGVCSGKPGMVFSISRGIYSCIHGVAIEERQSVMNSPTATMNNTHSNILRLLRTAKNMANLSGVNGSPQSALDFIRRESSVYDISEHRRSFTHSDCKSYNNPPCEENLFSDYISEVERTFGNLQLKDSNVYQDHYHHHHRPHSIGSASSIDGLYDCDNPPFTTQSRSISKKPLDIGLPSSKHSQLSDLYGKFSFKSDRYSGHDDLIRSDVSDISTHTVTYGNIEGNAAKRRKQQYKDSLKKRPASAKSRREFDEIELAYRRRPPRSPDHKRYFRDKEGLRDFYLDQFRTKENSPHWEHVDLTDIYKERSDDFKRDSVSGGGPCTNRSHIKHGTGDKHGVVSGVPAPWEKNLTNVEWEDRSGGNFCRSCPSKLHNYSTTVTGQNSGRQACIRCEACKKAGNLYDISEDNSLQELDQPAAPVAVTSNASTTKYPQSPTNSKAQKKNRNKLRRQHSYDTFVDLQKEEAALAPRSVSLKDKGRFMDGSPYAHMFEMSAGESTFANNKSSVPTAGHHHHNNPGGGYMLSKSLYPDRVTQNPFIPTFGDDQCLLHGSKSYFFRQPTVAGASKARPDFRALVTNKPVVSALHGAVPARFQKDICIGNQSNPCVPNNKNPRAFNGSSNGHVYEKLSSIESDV
ASSAY TEXT: Fluo-8 Ca2+ flux assay: reversal of Ro 25-6981-mediated suppression of the Ca2+ response to co-agonist (glutamate/glycine); further: test concentration or dose not given here
Assay type: cell-based
EXPERIMENTAL PARAMETERS: reversal of the Ro 25-6981 suppression of the Ca2+ response to co-agonist (glutamate/glycine)
Let's look at some molecules and their measured Response Recovered (%).

MOLECULE	Response Recovered (%)
O=C(Cn1cnc2csc(-c3ccc(Cl)c(F)c3)c2c1=O)N1CC(F)(F)C1 [Example 363]	16%
O=C(Cn1ccc2scc(-c3ccc(Cl)c(Cl)c3)c2c1=O)N1C[C@@H](F)[C@@H](F)C1 [Example 16]	107%
CC1(NC(=O)OC(C)(C)C)CN(C(=O)Cn2ccc3scc(-c4ccc(Cl)c(Cl)c4)c3c2=O)C1 [Example 73]	9.8%
O=C(Cn1ccc2c(c(-c3ccc(F)c(C(F)(F)F)c3)cn2-c2ccccc2)c1=O)N1CCC(F)C1 (stereo not shown) [Example 230]	109%
